- Test system: NB5;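 note: growth inhibition of NB5 cells, read out as cell viability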
- experimental_protocol: cells
- Format: functional, cell-based, Homo sapiens
- experimental_context: Homo sapiens, NB5
- Description: SANGER: Inhibition of human NB5 cell growth in a cell viability assay.
value_kind: IC50

*Q* In one line, give reported IC50 of the entry `CCC1=C[C@@H]2CN(C1)Cc1c([nH]c3ccccc13)[C@@](C(=O)OC)(c1cc3c(cc1OC)N(C)[C@H]1[C@@](O)(C(=O)OC)[C@H](OC(C)=O)[C@]4(CC)C=CCN5CC[C@]31[C@@H]54)C2` .
*A* > 0.064 µM

*Q* Quote IC50 reported for `C[C@]1(O)C[C@@H](c2nc(-c3ccc4ccc(-c5ccccc5)nc4c3)c3c(N)nccn32)C1` please.
*A* > 2.56 µM

*Q* Quote IC50 reported for `Cc1ccc(Nc2nccc(N(C)c3ccc4c(C)n(C)nc4c3)n2)cc1S(N)(=O)=O` please.
*A* > 8 µM

*Q* Given the compound `Cn1cc(C2=C(c3ccc(Cl)cc3Cl)C(=O)NC2=O)c2ccccc21` , write its reported IC50.
*A* > 10 µM

* * *

# pIC50 per entry
- Test system: SNU-449
- experimental_protocol: cells
- Assay type: functional, cell-based, Homo sapiens
- experimental_context: Homo sapiens, SNU-449
- Description: SANGER: Inhibition of human SNU-449 cell growth in a cell viability assay.
pIC50: −log10 of the molar value.

# annotated cases, reported pIC50 shown
[
  {
    "smiles_data": "O=C(c1cc(Cc2n[nH]c(=O)c3ccccc23)ccc1F)N1CCN(C(=O)C2CC2)CC1",
    "pIC50": "< 5.30"
  },
  {
    "smiles_data": "CCOc1nc(NC(=O)Cc2cc(OC)ccc2OC)cc(N)c1C#N",
    "pIC50": "< 5.00"
  },
  {
    "smiles_data": "C[C@]1(O)C[C@@H](c2nc(-c3ccc4ccc(-c5ccccc5)nc4c3)c3c(N)nccn32)C1",
    "pIC50": "< 5.59"
  },
  {
    "smiles_data": "Cc1ccc(Nc2nccc(N(C)c3ccc4c(C)n(C)nc4c3)n2)cc1S(N)(=O)=O",
    "pIC50": "< 5.10"
  },
  {
    "smiles_data": "O=c1cc(-c2cccc3c2Sc2ccccc2S3)oc(N2CCOCC2)c1",
    "pIC50": "< 5.00"
  }
]

*Q* State its pIC50 for this compound: `COc1ccc(-c2ccc3c(N4CCOC[C@@H]4C)nc(N4CCOC[C@@H]4C)nc3n2)cc1CO`
*A* 6.02

* * *

This section presents compounds with their documented pIC50 values.
- Test system: LU-99A;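 note: growth inhibition of LU-99A cells, read out with a cell viability assay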
- experimental_protocol: cells
- Type: functional, cell-based, Homo sapiens
- experimental_context: Homo sapiens, LU-99A
- Description: SANGER: Inhibition of human LU-99A cell growth in a cell viability assay.
pIC50: −log10 of the molar value.

[
  {
    "smiles_data": "CN(C)C/C=C/C(=O)Nc1cc2c(Nc3ccc(F)c(Cl)c3)ncnc2cc1O[C@H]1CCOC1",
    "pIC50": "< 6.30"
  },
  {
    "smiles_data": "C=CCc1cccc(/C=N/NC(=O)CN2CCN(Cc3ccccc3)CC2)c1O",
    "pIC50": "< 5.59"
  },
  {
    "smiles_data": "O=C(c1cc(Cc2n[nH]c(=O)c3ccccc23)ccc1F)N1CCN(C(=O)C2CC2)CC1",
    "pIC50": "< 5.30"
  },
  {
    "smiles_data": "C[C@]1(O)C[C@@H](c2nc(-c3ccc4ccc(-c5ccccc5)nc4c3)c3c(N)nccn32)C1",
    "pIC50": "< 5.59"
  }
]

*Q* Give the value of pIC50 reported for the following: `COc1ccc(C2=N[C@@H](c3ccc(Cl)cc3)[C@@H](c3ccc(Cl)cc3)N2C(=O)N2CCNC(=O)C2)c(OC(C)C)c1`
*A* < 5.10

*Q* Identify measured pIC50 associated with `CCOc1nc(NC(=O)Cc2cc(OC)ccc2OC)cc(N)c1C#N`
*A* < 5.00
